Recorded Redroot pigweed plant response rating (0 to 10 scale) for the following molecules
System: pigweed
method-summary: Test B pre/postemergence pigweed
Type: in vivo, Amaranthus retroflexus
experimental-context: Preemergence, Rate 125 g/ha; 0 is no effect, 10 is complete control
Description: […] At the same time, these crop and weed species were also treated with postemergence applications of test chemicals formulated in the same manner. […] Treated plants and controls were maintained in a greenhouse for twelve to sixteen days, after which all species were compared to controls and visually evaluated. […]
readout: Redroot pigweed plant response rating (0 to 10 scale)

molecule	experimental-system	obs-value
CC(C)N(C(=O)n1oc(=O)n(Cc2ccco2)c1=O)c1ccc(Cl)cc1	pigweed	0
CCN(CC)C(=O)n1oc(=O)n(Cc2ccccc2)c1=O	pigweed	0
CC(C)N(C(=O)n1oc(=O)n([C@@H](C)c2ccccc2)c1=O)c1ccc(F)cc1	pigweed	6
CC1CCCCC1n1c(=O)on(C(=O)N(c2ccccc2)C(C)C)c1=O (stereo not shown)	pigweed	0

----------
System: soybean
method-summary: Test B pre/postemergence soybean
Assay type: in vivo, Glycine max
experimental-context: Postemergence, Rate 62 g/ha; scale 0 to 10, 0 is no effect, 10 is complete control
readout: Soybean plant response rating

smiles-str	experimental-system	readout	obs-value
COc1ccc(-n2c(=O)on(C(=O)N(c3ccc(F)cc3F)C(C)C)c2=O)c(OC)c1	soybean	Soybean plant response rating	2
CC(C)N(C(=O)n1oc(=O)n(-c2ccccc2C(F)(F)F)c1=O)c1ccc(F)cc1	soybean	Soybean plant response rating	2
Cc1cccc(C(C)C)c1-n1c(=O)on(C(=O)N(c2ccc(Cl)cc2)C(C)C)c1=O	soybean	Soybean plant response rating	0
CCN(Cc1ccccc1)C(=O)n1oc(=O)n(-c2c(C)cccc2C)c1=O	soybean	Soybean plant response rating	0
CC(C)N(C(=O)n1oc(=O)n(Cc2cccs2)c1=O)c1ccc(F)cc1F	soybean	Soybean plant response rating	2
CC(C)N(C(=O)n1oc(=O)n(-c2cnn(C)c2Cl)c1=O)c1ccc(F)cc1	soybean	Soybean plant response rating	0

----------
Test system: blackgrass
method-summary: Test B pre/postemergence blackgrass
Assay type: in vivo, Alopecurus myosuroides
experimental-context: Rate 500 g/ha, Postemergence; scale 0 to 10, 0 no effect, 10 complete control
Consider the following compounds and their measured Blackgrass plant response rating readings.

compound	Blackgrass plant response rating
CC(C)N(C(=O)n1oc(=O)n(C[Si](C)(C)C)c1=O)c1ccc(F)cc1 [Compound 294]	8
CC(C)=CCCC(C)=CCn1c(=O)on(C(=O)N(c2ccc(F)cc2)C(C)C)c1=O [Compound 262]	0
COC(=O)CCCn1c(=O)on(C(=O)N(c2ccc(F)cc2)C(C)C)c1=O [Compound 266]	8
CSCCn1c(=O)on(C(=O)N(c2ccc(F)cc2)C(C)C)c1=O [Compound 314]	5

----------
Tested on: rape
method-summary: Test B pre/postemergence rape
Assay type: in vivo, Brassica napus
experimental-context: Preemergence, Rate 250 g/ha; scale 0 to 10 (0 no effect, 10 complete control)
List of Plant response rating, Rape values.
readout: Plant response rating, Rape

compound	obs-value
C#CC(C=C(C)C)n1c(=O)on(C(=O)N(c2ccccc2)C(C)C)c1=O (stereo not shown) [Compound 652]	0
CC(C)N(C(=O)n1oc(=O)n(CC(Cl)Cl)c1=O)c1ccc(F)cc1F [Compound 673]	2
CC(C)N(C(=O)n1oc(=O)n(CCF)c1=O)c1ccc(Cl)cc1 [Compound 668]	8
CC(C)N(C(=O)n1oc(=O)n(CCF)c1=O)c1ccc(F)cc1F [Compound 670]	10
